What follows is a collection of IC50 values obtained with UniProt P00630.
Sequence (P00630 34-167 limits assumed): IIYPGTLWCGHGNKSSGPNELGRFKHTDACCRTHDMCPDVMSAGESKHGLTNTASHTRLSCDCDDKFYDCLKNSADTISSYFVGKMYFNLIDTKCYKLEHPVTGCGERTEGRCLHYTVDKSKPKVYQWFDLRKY
One number for each entry, in nM.

Guide cases for IC50, answers given:
> print(dat)
                                   molecule  target.of.assay  readout.name  value
1  CCCCCCCCCCCCC(OC(=O)CC(=O)OC(CCCCCCCCCCCC)C1=CC(=O)OC1O)C1=CC(=O)OC1O (stereo not drawn)   UniProt P00630          IC50     20
2  CCCCCCCCCCCCC(OC(=O)CCCC(=O)OC(CCCCCCCCCCCC)C1=CC(=O)OC1O)C1=CC(=O)OC1O (stereo not drawn)   UniProt P00630          IC50     30

Q: Provide the reported IC50 (system: UniProt P00630) for CCCCCCC(OC(=O)CC(=O)OC(CCCCCC)C1=CC(=O)OC1O)C1=CC(=O)OC1O (stereo not drawn)
Result: 30

---

Biological target: phosphoinositide-specific phospholipase C
Assay: Inhibition of Phosphoinositide-specific Phospholipase C
Details: procedure of Bennett et al, Molecular Pharmacology 32:587-593 (1987); read-out: PLC IC50
READOUT NAME: pIC50
Give bare numbers, as −log10 of the molar value.

> print(dat)
                                   molecule                           target.of.assay  value
1  CC(=CCCC1=CCC(C2=CC(=O)OC2O)OC1O)CCC1=C(C)CCCC1(C)C (centres unmarked) [manoalide, Manoalide, reference compound]  phosphoinositide-specific phospholipase C   5.52

Q: Provide the reported pIC50 (system: phosphoinositide-specific phospholipase C) for CCCCCCCCCCCCC(OC(=O)CC(=O)OC(CCCCCCCCCCCC)C1=CC(=O)OC1O)C1=CC(=O)OC1O (centres unmarked)
Result: 5.70
